# System: MS2 coat protein
# protocol summary: apparent KD of MS2 coat protein; designed switch direction (-1 OFF switch, 1 ON switch): 1; higher = weaker reporter binding
# run parameters: Eterna round: R95; input ligand: none
Use YES when the recorded apparent KD of MS2 coat protein is no lower than 400 nM; use NO when it is lower.

| sequence code | target under test | group label |
| --- | --- | --- |
| AGUCCAGCCUGAGCUGGACAAAAGCAUGUACAUGAGGAUCACCCAUGUCAUGUAUAAGCUUUUUGCUCGUUUUAAUA [Zipper 49 - 16] (puzzle: Sensor for hsa-mir-208a) | MS2 coat protein | NO |
| AGUCCAGCAUGAGCUGGACAAAAGCAUGUACAUGAGGAUCACCCAUGUUCAUGUACAAGCUUUUUGCUCGUCUUAAA [Mat - hsa-mir-208a - Mod of JL - 45] (puzzle: Sensor for hsa-mir-208a) | MS2 coat protein | YES |
| AACUAUCUAUCUCAGGAUAUCAUGUCAAAGACAUGAGGAUCACCCAUGUACCAGGAAACUGGUUAUGAGAAGGGAGAUAGAUAGG [Mat - Same State 2 - Mod - D42] (puzzle: Same State 2) | MS2 coat protein | NO |
| AGGUGGUGUGGAAAGGAUAUACUGUUGAGGACAUGAGGAUCACCCAUGUGGUAGAGGACGUAAGGGUAGAAGGUUCGGGAUUGGU [JR_SS@_Sub021] (puzzle: Same State 2) | MS2 coat protein | NO |
| ACCCAAAGUAUAUGGGAACAAGCUUUUUAACAUGAGGAUCACCCAUGUACUCGUCUUGUAAGCAGUCGAAAGACUGC [Sensor 100 - 1] (puzzle: Sensor for hsa-mir-208a) | MS2 coat protein | NO |
| GGAGCCGGUACUGAGGAUAUUCAUAUUAAAACAUGAGGAUCACCCAUGUAGGCCAGAAGGCCUUGGGAGAAGGCGGAUCGGCUCC [Biseusra - 2] (puzzle: Same State 2) | MS2 coat protein | YES |
| GGAGAACAUGAGGAUCACCCAUGUGAGAGGGAUGUAGGAUAUGUGAGGAGUAAAGGAGGGACAGAAGGACAGAGAU [JR_SS!_Sub068] (puzzle: Same State 1) | MS2 coat protein | NO |
| UUCCUACAUGAGGAUCACCCAUGUGACGCCUCGAUAGGAUAUGCGUGUGCCUUGGCGCAUGCAGAAGGAUUGUAGC [JL Aveso mod 8] (puzzle: Same State 1) | MS2 coat protein | NO |
| AGUCCAGCCUGAGCUGGACAAAAGCAUGUACAUGAGGAUCACCCAUGUCAUGUACAAGUUUUUUGCUCGUUUUAAUA [Zipper 49 - 18] (puzzle: Sensor for hsa-mir-208a) | MS2 coat protein | NO |
| GUAAAACAUGAGGAUCACCCAUGUAAUAAUAUGGGAGGAUAUCAGAAUGUAUGUAUGUAAUGAGAAGGCCUAAAUU [Mat - Same State 1 - Mod of Eli - D75] (puzzle: Same State 1) | MS2 coat protein | YES |
| UAGAGAGGAAGCGAGGAUAUCGUGUGAGGUACAUGAGGAUCACCCAUGUUUUAUGUUGAGAGAGGCGAGAAGGCGCAGGAGAAAA [JR_SS2_Sub087] (puzzle: Same State 2) | MS2 coat protein | NO |
| AGUAUACAUGAGGAUCACCCAUGUCAGUAACUGACAGGAUAUGCGUUGCAUCACUGUAAUGCAGAAGGGUCUUGUA [Same State 1 - Mod of JMF's solution 1] (puzzle: Same State 1) | MS2 coat protein | YES |
| AGUCCAGCCUAAGCUGGACAAAAGCAUGUACAUGAGGAUCACCCAUGUCAUGUACAAGCUUUUUGCUCGUCUUAAAA [Mat - hsa-mir-208a - Mod of JL - D4] (puzzle: Sensor for hsa-mir-208a) | MS2 coat protein | YES |
| AUAAAACAUGAGGAUCACCCAUGUCAACAAAGUCGAGGAUAUGGGCAAAGAAAAUAAUAACCAGAAGGCGAAUAAU [salish99_ss1_r3_054] (puzzle: Same State 1) | MS2 coat protein | YES |
| GUAGAUAUAGAGGAGGAUAUUCAAUGAGGAACAUGAGGAUCACCCAUGUAAGAGAGAGAUGAUGAGAAGAAGGCUUAGAGGGAUG [Altered State 2-3 - Jieux - Same State 2] (puzzle: Same State 2) | MS2 coat protein | NO |
| UCUUGGUUUUUGCUCGUUUUUUGUGUUGAACAUGAGGAUCACCCAUGUAUUGUACAAUCCGAUUUAAUAAUGGUCCG [JMF 50] (puzzle: Sensor for hsa-mir-208a) | MS2 coat protein | NO |
| AAACUACAUGAGGAUCACCCAUGUGAAAACCGCAUAGGAUAUCCGCAGCAAUGAGCUGACGGAGAAGGGUGACCGG [Riater] (puzzle: Same State 1) | MS2 coat protein | NO |
| UUUAGUUGCGGGCAGGAUAUGUAUUAAUAUACAUGAGGAUCACCCAUGUGAGAUCGAAUAGAUCUACAGAAGGGCCAAUCGCGAC [Laonerce - 25] (puzzle: Same State 2) | MS2 coat protein | NO |
| GUUAUACAUGAGGAUCACCCAUGUCAAUGUAGUCGAGGAUAUGGGCAGCUAUGUAGCGUACUAGAAGGCGAAGAGU [JL-ss1-3.13 ViennaUCT mod] (puzzle: Same State 1) | MS2 coat protein | NO |
| AUAAUAAUAAGUGAGGAUAUGUUGAUAAAGACAUGAGGAUCACCCAUGUGAAAUAAAAUAAUAAUACAGAAGGCACAAUAAUAAA [JMF's solution 2] (puzzle: Same State 2) | MS2 coat protein | NO |
